- Tested on: HIV in the HTLV-1 transformed cell line MT-4
- Test Protocol: organism not typed
- Type: cell-based
- Stated Conditions: MT4, 96 h, MT-4 cells; luciferase/cell titer glo readout after 96 hours; 10 point dose response
pIC50: −log10 of the molar value.
Label 1 when pIC50 >= 8; otherwise -1.

- Compound: "Cc1c(-c2c(C)c3c(c(C)c2[C@H](OC(C)(C)C)C(=O)O)CN(C(=O)c2cccc4c2OCCO4)C3)cc(F)c2c1CCCO2 (atropisomer, axis not shown; (M)) [Example 153]"
  Qualitative Label: 1
- Compound: "Cc1ccc(-c2c(C)c3c(c(C)c2[C@H](OC(C)(C)C)C(=O)O)CN(C(=O)N2C[C@H](C)O[C@@H](C)C2)C3)cc1 [Example 73]"
  Qualitative Label: -1
- Compound: "Cc1ccc(-c2c(C)c3c(c(C)c2[C@H](OC(C)(C)C)C(=O)O)CN(C(=O)N2CCN4CCC[C@@H]4C2)C3)cc1 [Example 80]"
  Qualitative Label: -1

Input: Record COC(=O)N1Cc2c(C)c(-c3ccc(C)cc3)c([C@H](OC(C)(C)C)C(=O)O)c(C)c2C1 [Example 48] ; criterion: pIC50 no lower than 8. Met?
Output: -1

Input: Could you verify whether the entry Cc1c2c(c(C)c([C@H](OC(C)(C)C)C(=O)O)c1-c1ccc(Cl)cc1)CN(C(=O)N1CCCCC1)C2 [Example 132] shows pIC50 of no less than 8?
Output: -1
